test system: V79; test: Cytotoxicity against Chinese Hamster V79 cells assessed as reduction in cell viability measured after 72 hrs by MTT assay; format: cell-based; settings: Cricetulus griseus, V79, 72 h
pIC50: −log10 of the molar value.
Here the recorded pIC50 is given for each entry.
Endpoint: pIC50

INSERT INTO results (compound, endpoint, observed_value) VALUES
  ('COc1ccc(-n2nnnc2Nc2cccc(F)c2)cc1', 'pIC50', 3.61),
  ('COc1ccc(-n2nnnc2Nc2ccccc2Br)cc1', 'pIC50', 3.62),
  ('COc1ccc(-n2nnnc2Nc2ccc(Br)cc2)cc1', 'pIC50', 3.67),
  ('COc1ccc(-n2nnnc2Nc2cccc(Cl)c2)cc1', 'pIC50', 3.62),
  ('COc1ccc(-n2nnnc2Nc2ccccc2F)cc1', 'pIC50', 3.94),
  ('COc1cccc2c1C(=O)c1c(O)c3c(c(O)c1C2=O)C[C@@](O)(C(=O)CO)C[C@@H]3O[C@H]1C[C@H](N)[C@H](O)[C@H](C)O1 [DOXORUBICIN]', 'pIC50', 5.66),
  ('COc1ccc(Nc2nnnn2-c2cccc(F)c2)cc1', 'pIC50', 3.91),
  ('COc1ccc(-n2nnnc2Nc2cccc(Br)c2)cc1', 'pIC50', 3.62),
  ('COc1ccc(-n2nnnc2Nc2ccc(F)cc2)cc1', 'pIC50', 3.63),
  ('COc1ccc(-n2nnnc2Nc2ccccc2Cl)cc1', 'pIC50', 3.61),
  ('COc1ccc(Nc2nnnn2-c2ccccc2Br)cc1', 'pIC50', 3.92),
  ('COc1ccc(Nc2nnnn2-c2cccc(Br)c2)cc1', 'pIC50', 3.91);

---

test system: Mycobacterium tuberculosis; experiment: Antitubercular activity against Mycobacterium tuberculosis H37Rv ATCC 25618 assessed as inhibition of microbial growth by classical test tube method; type: functional
Endpoint: MIC (µg/mL)

INSERT INTO assay_data (compound, unit, censoring_qualifier, observed_value) VALUES
  ('NNC(=O)c1ccncc1 [ISONIAZID]', 'µg/mL', '=', 6.25),
  ('COc1ccc(NC(=S)Nc2ccc(Br)cc2)cc1', 'µg/mL', '=', 25),
  ('COc1ccc(NC(=S)Nc2cccc(Cl)c2)cc1', 'µg/mL', '=', 100),
  ('CN[C@@H]1[C@H](O[C@H]2[C@H](O[C@H]3[C@H](O)[C@@H](O)[C@H](N=C(N)N)[C@@H](O)[C@@H]3N=C(N)N)O[C@@H](C)[C@]2(O)C=O)O[C@@H](CO)[C@H](O)[C@H]1O [STREPTOMYCIN]', 'µg/mL', '<', 3.1),
  ('COc1ccc(NC(=S)Nc2ccccc2F)cc1', 'µg/mL', '=', 50),
  ('COc1ccc(NC(S)=Nc2ccc(F)cc2)cc1', 'µg/mL', '=', 50),
  ('CO[C@H]1/C=C/O[C@@]2(C)Oc3c(C)c(O)c4c(O)c(c(/C=N/N5CCN(C)CC5)c(O)c4c3C2=O)NC(=O)/C(C)=C\C=C\[C@H](C)[C@H](O)[C@@H](C)[C@@H](O)[C@@H](C)[C@H](OC(C)=O)[C@@H]1C [RIFAMPIN]', 'µg/mL', '<', 3.1),
  ('COc1ccc(NC(=S)Nc2cccc(Br)c2)cc1', 'µg/mL', '=', 50),
  ('COc1ccc(NC(=S)Nc2ccc(Cl)cc2)cc1', 'µg/mL', '=', 50);
